We begin with a simple list: items and their reported Artifact Signal (percent).
assay: AlphaScreen counterscreen against bio-H3K4me2 peptide in the absence of enzyme (artifact signal); conditions: effect of the compound when incubated with bio-H3K4me2 peptide (counterscreen, no enzyme)
Structures can show the parent of a compound that is named as a salt.

molecule	Artifact Signal (percent) (%)
CC(C)NCC(O)c1ccc(O)c(O)c1 (centres unmarked) [YU033874, ISOPROTERENOL HYDROCHLORIDE, reference compound]	−2.38
CCCSc1nc2c3c(sc2c(=O)[nH]1)CC(C)(CC)OC3 (centres unmarked) [YU153031]	0.09
Cc1c(C(=O)O)cccc1-c1ccc(C=C[N+](=O)[O-])o1 (single isomer, unassigned) [YU147801]	16.98
C=CCOc1c(Cl)cc(C=C[N+](=O)[O-])cc1OCC (single isomer, unassigned) [YU148636]	−0.47
Cc1c2c(=O)n(-c3nc4ccccc4s3)[nH]c2cc(=O)n1Cc1ccc(C(=O)O)cc1 [YU172089]	11.16
CC(=O)NNC(=O)c1ccncc1 [YU129955]	−4.84
C=NC(C(=O)N[C@H]1C(=O)N2C1SC(C)(C)C2C(=O)O)c1ccccc1 (stereo in doubt) [YU034263, METAMPICILLIN SODIUM, reference compound]	0.13
CC(C)NNC(=O)c1ccncc1 [YU034066, IPRONIAZID SULFATE, reference compound]	3.41

---

molecular target: JARID1B (Homo sapiens); construct: The FLAG tagged full length JARID1B enzyme was expressed in Sf21 insect cells using FLAG-JARID1B baculoviruses; FLAG (N); made in house; host or cells: Sf21 insect cells (baculovirus); experiment: FLAG-JARID1B histone demethylase assay with AlphaScreen detection (HTS and dose response); assay type: biochemical; conditions: assay signal minus artifact signal

molecule	Assay − Artifact Signal (percent)
O=c1c(O)c(-c2ccc(O)c(O)c2)oc2c(O[C@@H]3O[C@H](CO)[C@@H](O)[C@H](O)[C@H]3O)c(O)cc(O)c12 [YU153353, GOSSYPIN, reference compound]	37.81%
O=c1c(O)c(-c2ccc(O)c(O)c2)oc2cc(O)ccc12 [YU155255, FISETIN, reference compound]	22.49%
COc1ccc(Cl)cc1NC(=S)Nn1cnnc1	17.82%
COCc1cc(O)c(O)c(O)c1-c1c(COC)cc(O)c(O)c1O [YU154887, reference compound]	57.15%
O=C(NC1CCCCC1)c1ccc(NC(=O)c2ccccc2O)cc1	23.65%
N#CC(=Cc1ccc(N2CCCCC2)o1)c1ccc([N+](=O)[O-])cc1 (single isomer, unassigned)	9.56%
C[C@@](Cc1ccc(O)c(O)c1)(NN)C(=O)O [YU034292, CARBIDOPA, reference compound]	26.51%

---

biological target: JARID1B (Homo sapiens); construct: The FLAG tagged full length JARID1B enzyme was expressed in Sf21 insect cells using FLAG-JARID1B baculoviruses; FLAG (N); made in house; host or cells: Sf21 insect cells (baculovirus); assay: FLAG-JARID1B histone demethylase assay with AlphaScreen detection (HTS and dose response); format: biochemical; settings: validation of HTS actives; effect of compound in JARID1B AlphaScreen assay
Structures can show the parent of a compound that is named as a salt.

compound	target	Assay Signal (percent)
CCCCC(CC)CNC(=N)NC(=N)NCCCCCCNC(=N)NC(=N)NCC(CC)CCCC (centres unmarked) [YU034347, ALEXIDINE HYDROCHLORIDE, reference compound]	JARID1B (Homo sapiens)	72.00%
Cn1c(S)nnc1CSCc1ccc(F)cc1	JARID1B (Homo sapiens)	19.36%
C=CCn1c(-c2ccc([N+](=O)[O-])cc2)n[nH]c1=S	JARID1B (Homo sapiens)	37.42%
c1cncc(-c2nn3c(Cn4cnc5ccccc54)nnc3s2)c1	JARID1B (Homo sapiens)	29.87%
S=C(Nc1cccc(Cl)c1Cl)Nn1cnnc1	JARID1B (Homo sapiens)	15.58%

---

assay: AlphaScreen counterscreen against bio-H3K4me2 peptide in the absence of enzyme (artifact signal); conditions: counterscreen, bio-H3K4me2 peptide, no enzyme
Structures can show the parent of a compound that is named as a salt.
Attribute: Artifact signal: effect of the compound when it is incubated with bio-H3K4me2 peptide
property.label: Artifact signal: effect of the compound when it is incubated with bio-H3K4me2 peptide

molecule	obs.value
O=c1oc2c(O)c(O)cc3c(=O)oc4c(O)c(O)cc1c4c23 [YU034320, ELLAGIC ACID, reference compound]	31.44
CN(C)CCCN1c2ccccc2Sc2ccc(C(F)(F)F)cc21 [YU034370, TRIFLUPROMAZINE HYDROCHLORIDE, reference compound]	−2.95
CNCCCOc1ccc(OCc2ccccc2)cc1 [YU147640]	−2.82
O=C1NC(=O)C(c2ccc(Cl)cc2)N1 (centres unmarked) [YU145089]	−1.01
O=C(O[C@@H]1Cc2c(O)cc(O)cc2O[C@@H]1c1cc(O)c(=O)c2c(O)c(O)cc([C@H]3Oc4cc(O)cc(O)c4C[C@H]3O)c2c1)c1cc(O)c(O)c(O)c1 [YU155347, THEAFLAVIN MONOGALLATES, reference compound]	95.69
Cc1nc(NC(=O)c2cc3ccccc3o2)sc1C [YU147750]	−6.59
Clc1cccc(N2CCN(Cc3ccc4ccccc4c3)CC2)c1 [YU105195]	5.28
O=C(Nc1ccc(N2Cc3ccccc3OC(c3ccccc3)C2)c(C(=O)O)c1)c1ccccc1F (centres unmarked) [YU208213]	32.32
COc1ccccc1NC(=O)COc1ccc(CO)cc1Cl [YU152649]	0.22
CCOc1cc(Cl)c(S(=O)(=O)n2ccnc2)cc1Cl [YU152583]	−4.74
CCCCC(=O)Nc1ccc(N2CCC(C(N)=O)(N3CCCCC3)CC2)c(C(=O)O)c1 [YU208194]	11.63
COc1cc(C=O)cc(Cl)c1OCc1cccc([N+](=O)[O-])c1 [YU152587]	−2.67
NCCc1ccc(O)c(O)c1 [YU033802, DOPAMINE HYDROCHLORIDE, reference compound]	−2.83
O=C(OC[C@H]1O[C@@H](OC(=O)c2cc(O)c(O)c(OC(=O)c3cc(O)c(O)c(O)c3)c2)[C@H](OC(=O)c2cc(O)c(O)c(OC(=O)c3cc(O)c(O)c(O)c3)c2)[C@@H](OC(=O)c2cc(O)c(O)c(OC(=O)c3cc(O)c(O)c(O)c3)c2)[C@@H]1OC(=O)c1cc(O)c(O)c(OC(=O)c2cc(O)c(O)c(O)c2)c1)c1cc(O)c(O)c(OC(=O)c2cc(O)c(O)c(O)c2)c1 (stereo in doubt) [YU153507, TANNIC ACID, reference compound]	99.80

---

biological target: JARID1B (Homo sapiens, UniProt Q9UGL1); construct: The FLAG tagged full length JARID1B enzyme was expressed in Sf21 insect cells using FLAG-JARID1B baculoviruses; FLAG (N); made in house; host or cells: Sf21 insect cells (baculovirus); assay: FLAG-JARID1B histone demethylase assay with AlphaScreen detection (HTS and dose response); assay type: biochemical; settings: high-throughput screen, compound 20 μM, standard demethylase conditions (10 μM α-KG, 50 μM Fe (II)); read-out: Inhibitory effect (percent);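 also: FLAG-tagged JARID1B at 4 nM acting on a biotinylated H3K4me3 peptide, demethylation read by AlphaScreen luminescence, with hits checked against bio-H3K4me2 without enzyme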
Sequence (Q9UGL1 whole entry): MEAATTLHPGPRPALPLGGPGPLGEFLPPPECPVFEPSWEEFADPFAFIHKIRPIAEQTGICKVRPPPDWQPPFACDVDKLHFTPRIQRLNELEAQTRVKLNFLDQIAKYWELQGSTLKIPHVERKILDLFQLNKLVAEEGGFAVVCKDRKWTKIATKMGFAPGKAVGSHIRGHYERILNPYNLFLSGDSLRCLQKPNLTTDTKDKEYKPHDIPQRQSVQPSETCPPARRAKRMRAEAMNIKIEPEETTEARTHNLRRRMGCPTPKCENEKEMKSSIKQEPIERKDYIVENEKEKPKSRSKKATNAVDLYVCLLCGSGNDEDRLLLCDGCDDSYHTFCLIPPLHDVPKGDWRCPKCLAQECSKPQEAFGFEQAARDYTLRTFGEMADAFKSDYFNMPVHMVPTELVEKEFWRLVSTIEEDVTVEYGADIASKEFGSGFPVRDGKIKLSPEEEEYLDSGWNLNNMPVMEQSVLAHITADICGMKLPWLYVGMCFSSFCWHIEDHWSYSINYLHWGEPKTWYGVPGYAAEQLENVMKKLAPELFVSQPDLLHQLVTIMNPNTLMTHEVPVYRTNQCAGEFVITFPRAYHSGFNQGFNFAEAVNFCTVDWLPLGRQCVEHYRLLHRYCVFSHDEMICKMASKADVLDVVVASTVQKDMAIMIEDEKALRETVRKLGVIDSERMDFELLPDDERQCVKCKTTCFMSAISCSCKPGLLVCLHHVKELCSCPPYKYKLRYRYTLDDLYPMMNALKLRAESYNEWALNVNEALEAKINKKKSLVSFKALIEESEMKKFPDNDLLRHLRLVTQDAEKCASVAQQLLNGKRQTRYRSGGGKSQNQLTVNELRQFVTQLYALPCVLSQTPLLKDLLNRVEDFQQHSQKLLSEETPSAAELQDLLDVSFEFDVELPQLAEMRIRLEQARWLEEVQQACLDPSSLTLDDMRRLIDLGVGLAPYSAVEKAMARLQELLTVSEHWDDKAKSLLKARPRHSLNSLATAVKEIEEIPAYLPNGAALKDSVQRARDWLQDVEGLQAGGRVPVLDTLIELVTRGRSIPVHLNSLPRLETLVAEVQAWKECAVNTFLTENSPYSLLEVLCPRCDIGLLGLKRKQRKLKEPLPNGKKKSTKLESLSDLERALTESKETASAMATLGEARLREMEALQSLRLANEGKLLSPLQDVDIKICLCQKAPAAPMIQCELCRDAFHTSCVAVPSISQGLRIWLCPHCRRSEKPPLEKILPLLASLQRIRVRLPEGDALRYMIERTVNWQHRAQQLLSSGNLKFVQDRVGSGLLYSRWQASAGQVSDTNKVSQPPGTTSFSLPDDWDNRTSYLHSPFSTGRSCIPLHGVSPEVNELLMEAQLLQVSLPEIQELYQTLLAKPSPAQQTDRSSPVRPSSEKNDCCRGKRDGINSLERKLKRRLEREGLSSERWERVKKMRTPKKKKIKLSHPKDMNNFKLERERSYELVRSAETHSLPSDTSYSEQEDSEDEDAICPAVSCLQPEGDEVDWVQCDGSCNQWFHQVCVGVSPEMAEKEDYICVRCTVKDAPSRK
Rule: inhibition at 20 µM under 90% gives False, otherwise True.

compound	cat
N#Cc1c(NC(=O)c2cnn3cccnc23)sc2c1CCCC2	False
Cc1nn2c(=O)[nH]c3sc4c(c3c2nc1=O)CC(C)(C)OC4	False
O=c1c(O)c(-c2ccc(O)c(O)c2)oc2cc(O)cc(O)c12 [YU154882, QUERCETIN, reference compound]	False
CCCSc1nc2c3c(sc2c(=O)[nH]1)CC(C)(CC)OC3 (centres unmarked)	True
O=C(O)CCCC[C@@H]1SC[C@@H]2NC(=O)N[C@@H]21 [YU034331, BIOTIN, reference compound]	True
Cc1cccc(NC(c2cccnc2)c2ccc3cccnc3c2O)c1 (centres unmarked)	False

---

Below: a set of entries, each annotated with reported Artifact Signal (percent).
experiment: AlphaScreen counterscreen against bio-H3K4me2 peptide in the absence of enzyme (artifact signal); settings: effect of the compound when incubated with bio-H3K4me2 peptide (counterscreen, no enzyme);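 also: counterscreen run without enzyme against bio-H3K4me2 peptide to remove false positive hits from the JARID1 demethylase AlphaScreen screen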

molecule	endpoint.unit	Artifact Signal (percent)
O=c1c(-c2cc(O)c(O)c(O)c2)coc2cc(O)c(O)c(O)c12 [YU155411, IRIGENOL, reference compound]	%	−9.11
Cc1nnc(S)n1NCc1ccc2c(c1)OCO2	%	1.94
CCSc1nnc(-c2cc(OC)cc(OC)c2)o1	%	−5.71
NC[C@H](O)c1ccc(O)c(O)c1 [YU033927, NOREPINEPHRINE, reference compound]	%	1.83
Cc1cccc(NC(c2ccncc2)c2ccc3cccnc3c2O)c1 (stereo not drawn)	%	48.19
c1cncc(-c2nn3c(Cn4cnc5ccccc54)nnc3s2)c1	%	5.50
CCC(=O)Nc1ccc(N2CCC(C(N)=O)(N3CCCCC3)CC2)c(C(=O)O)c1	%	16.13
N#CC(=CC=Cc1ccco1)C(N)=S (single isomer, unassigned)	%	40.11
CCOc1cccc(CNc2ccc(N3CCCC3)cc2)c1	%	18.44
